# system: human CCR8 (human, UniProt P51685 1-355)
# experiment: cell-based or functional assay
metric.name: hCCL1 (100 nM) residual response, Protocol #3, mAb 0.5 µg/mL (%)
Enter your answer as a number in %; do not include the unit.

hCCL1 (100 nM) residual response, Protocol #3, mAb 0.5 µg/mL in this record for 3-76 (antibody, human IgG1, kappa, V domains shown, humanized, human IgG1 kappa) VH: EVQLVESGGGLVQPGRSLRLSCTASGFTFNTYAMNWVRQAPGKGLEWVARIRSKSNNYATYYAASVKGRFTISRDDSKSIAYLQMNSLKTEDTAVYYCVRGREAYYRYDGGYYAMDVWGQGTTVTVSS VL: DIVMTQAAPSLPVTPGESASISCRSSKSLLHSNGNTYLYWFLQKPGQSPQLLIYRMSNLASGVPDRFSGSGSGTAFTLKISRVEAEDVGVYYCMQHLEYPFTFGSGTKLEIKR : 71

hCCL1 (100 nM) residual response, Protocol #3, mAb 0.5 µg/mL in this record for 3-46 (antibody, V domains shown) VH: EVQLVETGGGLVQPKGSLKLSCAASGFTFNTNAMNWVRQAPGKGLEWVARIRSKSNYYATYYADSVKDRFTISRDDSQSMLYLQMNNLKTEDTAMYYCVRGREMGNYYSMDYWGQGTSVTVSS VL: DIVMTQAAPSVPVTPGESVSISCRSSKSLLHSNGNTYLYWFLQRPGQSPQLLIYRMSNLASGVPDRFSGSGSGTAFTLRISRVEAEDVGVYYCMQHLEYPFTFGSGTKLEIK : 39

hCCL1 (100 nM) residual response, Protocol #3, mAb 0.5 µg/mL in this record for 3-13 (antibody, V domains shown) VH: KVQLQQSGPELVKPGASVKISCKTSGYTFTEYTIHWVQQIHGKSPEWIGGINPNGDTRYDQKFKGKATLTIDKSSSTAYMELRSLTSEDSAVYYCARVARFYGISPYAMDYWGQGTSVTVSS VL: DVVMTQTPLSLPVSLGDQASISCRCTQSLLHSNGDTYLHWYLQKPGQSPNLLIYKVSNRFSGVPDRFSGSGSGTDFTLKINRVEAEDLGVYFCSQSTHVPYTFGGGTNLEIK : 81
